Taken from patent US20250270304A1.

Target: T1, Latent Activin A (human, UniProt P08476 21-426, limits assumed)
T1 construct: also called INHBA latent
T1 sequence: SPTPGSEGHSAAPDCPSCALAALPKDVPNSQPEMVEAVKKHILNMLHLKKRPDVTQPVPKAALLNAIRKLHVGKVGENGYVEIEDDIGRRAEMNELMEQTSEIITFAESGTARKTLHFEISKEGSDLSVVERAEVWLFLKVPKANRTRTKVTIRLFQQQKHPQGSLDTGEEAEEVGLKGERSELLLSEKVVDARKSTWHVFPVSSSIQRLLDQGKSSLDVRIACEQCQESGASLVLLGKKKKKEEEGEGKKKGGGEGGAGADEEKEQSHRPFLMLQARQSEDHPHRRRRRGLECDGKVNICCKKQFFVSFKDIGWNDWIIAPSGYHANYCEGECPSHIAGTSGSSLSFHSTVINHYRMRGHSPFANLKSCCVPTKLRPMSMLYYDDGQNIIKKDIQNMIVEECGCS
Assay: ELISA, coated antigen, OD450
Description: Antibodies were re-expressed in 40 mL cultures of Expi293 cells and purified using protein G magnetic sepharose beads (Cytiva, Marlborough, MA) to provide larger quantities for secondary screening. Secondary screening included dose responses in both functional assays described above (SMAD nuclear localization and fibroblast activations assays) as well as in binding assays to the same antigens listed in Table 3. […]
# cutoff 5 fold applies to fold-change of OD 450 over negative control (BSA); >= gives Criterion met, < gives Criterion not met

binder	categoryLabel
AB345 (antibody, IgG1, V domains shown) VH: EVQLVESGGGLVQPGGSLRLSCAASGFTSSGYWMSWFRQAPGKGLELVASIGTAGVTYYPDSVKGRFTISRDNAKNSLYLQMNSLRAEDTAVYYCARGPHGPQQRLRFDPWGQGTLVTVSS VL: DIVMTQSPLSLPVTPGEPASISCRSSQSLLSSYGYHNLHWYLQKPGQSPQLLIYMGSIRAPGVPDRFSGSGSGTDFTLKISRVEAEDVGVYYCMQGTQAPRTFGGGTKVEIK	Criterion met
AB352 (antibody, IgG1, V domains shown) VH: QVQLQESGPGLVKPSQTLSLTCTVSGFPLSTSRMGVNWIRQPPGKGLEWIGYINPSGATDYNPSLKSRVTMSVDTSKNQFSLKVNSVTAADTAVYYCARAGYPDVWGKGTTVTVSS VL: EIVMTQSPATLSLSPGERATLSCRASQSVSTHLAWYQQKPGQAPRLLIYDATNRATGIPARFSGSGSGTDFTLTISSLEPEDFAVYYCLQYTNYPWTFGGGTKVEIK	Criterion met
AB428 (antibody, IgG1, V domains shown) VH: EVQLVESGGGLVQPGGSLRLSCAASGFTSSNHWMSWVRQAPGKGLELVASIGPKGLGTYYPDSVKGRFTISRDNAKNSLYLQMNSLRAEDTAVYYCASIRDYGDKKGGSWFDPWGQGTLVTVSS VL: DIVMTQSPLSLPVTPGEPASISCRSSQSLLHSSGYNFLHWYLQKPGQSPQLLIYMATNRASGVPDRFSGSGSGTDFTLKISRVEAEDVGVYYCVQDLHTLPQFGGGTKVEIK	Criterion met
AB341 (antibody, IgG1, V domains shown) VH: EVQLVESGGGLVQPGGSLRLSCAASGYTFSNYGMSWVRQAPGKGLELVASISKSGSSIYYPDSVKGRFTISRDNAKNSLYLQMNSLRAEDTAVYYCARLPRLAWNYYYGMDVWGQGTTVTVSS VL: DIVMTQSPLSLPVTPGEPASISCRSSQSLLHSNEKNYLHWYLQKPGQSPQLLIYDASKRASGVPDRFSGSGSGTDFTLKISRVEAEDVGVYYCVQDLHTPFTFGGGTKVEIK	Criterion not met
AB852 (antibody, IgG1, V domains shown) VH: QVTLRESGPALVKPTQTLTLTCTVSGFSLSDTRWGVNWIRQPPGKALEWIGYINDRGTTDYNSALKSRLTISKDTSKNQVVLTMTNMDPVDTATYYCAHTLHTREFVGMDVWGQGTTVTVSS VL: DIVMTQSPDSLAVSLGERATINCKSSQSVLDTSTNRNYLAWYQQKPGQPPKLLIYGASIRAGGVPDRFSGSGSGTDFTLTISSLQAEDVAVYYCQQYETWPWTFGGGTKVEIK	Criterion met
AB326 (antibody, IgG1, V domains shown) VH: QVQLVQSGAEVKKPGASVKVSCKVSGYTFTSSAISWVRQAPGKGLEWMGGIYPGSGHTIYAQKFQGRVTMTEDTSTDTAYMELSSLKSEDTAVYYCAREGDIFVMDVWGLGTAVTVSS VL: DIQMTQSPSSVSASVGDRVTITCRASMDIRNDLAWYQQKPGKAPKLLIYDASKLETGVPSRFSGSGSGTDFTLTISSLQPEDFANYYCQQAKSFPPTFGGGTKVEIK	Criterion met
AB340 (antibody, IgG1, V domains shown) VH: EVQLVESGGGLVQPGGSLRLSCAASGFTASRNYMSWVRQAPGKGLELVASISGSGDYTYYPDSVKGRFTISRDNAKNSLYLQMNSLRAEDTAVYYCARSPRGPRLLGYYYGMDVWGQGTTVTVSS VL: DIVMTQSPLSLPVTPGEPASISCRSSRSLVHGSGHNYLHWYLQKPGQSPQLLIYGASTRVAGVPDRFSGSGSGTDFTLKISRVEAEDVGVYYCMQGTQAPRTFGGGTKVEIK	Criterion not met
AB431 (antibody, IgG1, V domains shown, also called mAb 431) VH: EVQLVESGGGLVQPGGSLRLSCAASGFTSSNHWMSWVRQAPGKGLELVASIGPKGLGTYYPDSVKGRFTISRDNAKNSLYLQMNSLRAEDTAVYYCARDVRGWRALYYYYGMDVWGQGTTVTVSS VL: DIVMTQSPLSLPVTPGEPASISCRSSQSLLHVTGYNYLHWYLQKPGQSPQLLIYGASSRAAGVPDRFSGSGSGTDFTLKISRVEAEDVGVYYCMQSTQWPHTFGGGTKVEIK	Criterion not met
AB448 (antibody, IgG1, V domains shown) VH: QVQLQESGPGLVKPSQTLSLTCTVSGLSLSNAKMGVNWIRQPPGKGLEWIGYVSTTGTTDYNPSLKSRVTMSVDTSKNQFSLKVNSVTAADTAVYYCARAGYPDVWGKGTTVTVSS VL: DIQMTQSPSSVSASVGDRVTITCRASQNIGAALAWYQQKPGKAPKLLIYGASTREYGVPSRFSGSGSGTDFTLTISSLQPEDFANYYCQQYTAYPLTFGGGTKVEIK	Criterion not met
